Read-out: E-selectin (Homo sapiens) (UniProt P16581)
Sequence (P16581 whole entry, looked up): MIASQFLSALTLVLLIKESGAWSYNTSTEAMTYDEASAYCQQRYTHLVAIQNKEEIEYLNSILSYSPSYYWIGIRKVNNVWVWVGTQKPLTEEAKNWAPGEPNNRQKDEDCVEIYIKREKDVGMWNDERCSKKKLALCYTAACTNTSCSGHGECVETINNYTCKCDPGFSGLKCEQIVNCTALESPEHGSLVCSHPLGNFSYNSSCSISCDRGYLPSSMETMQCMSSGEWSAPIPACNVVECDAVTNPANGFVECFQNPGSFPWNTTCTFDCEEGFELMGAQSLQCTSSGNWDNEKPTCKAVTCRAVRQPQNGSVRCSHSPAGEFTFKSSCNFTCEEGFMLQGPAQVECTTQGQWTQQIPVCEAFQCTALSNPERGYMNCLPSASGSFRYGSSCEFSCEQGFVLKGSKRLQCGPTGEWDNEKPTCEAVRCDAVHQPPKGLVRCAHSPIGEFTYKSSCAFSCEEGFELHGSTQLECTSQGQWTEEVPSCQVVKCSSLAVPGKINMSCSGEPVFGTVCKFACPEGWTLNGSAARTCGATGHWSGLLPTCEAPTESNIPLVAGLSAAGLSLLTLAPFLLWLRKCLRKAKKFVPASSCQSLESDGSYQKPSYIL
Procedure summary: BSK_SAg_Eselectin: BioMAP Diversity Plus: SAg Assay for Eselectin Biomarker Activity (AID 2283091)
Condition description: primary human HUVEC with PBMC; actives raise or lower the signal
Description: BSK_SAg is a cell-based, multiplexed-readout assay that uses umbilical vein endothelium and peripheral blood mononuclear cells, a human vascular primary cell co-culture, with measurements taken at 24 hours after chemical dosing in a 96-well plate.BSK_SAg_Eselectin is an assay component measured in the BSK_SAg assay. It measures E-selectin antibody related to regulation of gene expression using ELISA technology.Data from the assay component BSK_SAg_Eselectin was analyzed into 1 assay endpoint. […]
The source made the active and inactive calls. The calls were made as follows: active = hit-call score of the fitted dose curve at least 0.9, where 1 is the maximum; inactive = score below 0.9.
Quantity measured: outcome

compound=COc1nc(C)nc(NC(=O)NS(=O)(=O)c2ccccc2OCCCl)n1 quantity_measured=outcome value=inactive
compound=c1ccc2[nH]c(-c3cscn3)nc2c1 quantity_measured=outcome value=inactive
compound="CCC(O)=C1C(=O)CC(C(=O)O)CC1=O (stereo not drawn)" quantity_measured=outcome value=inactive

====

Read-out: CYP2E1 (gene 1571)
Procedure summary: LTEA_HepaRG_CYP2E1: Life Technologies and Expression Analysis (LTEA) Assay for CYP2E1 using HepaRG (AID 2283485)
Condition description: mRNA level, 48 h; actives raise or lower the signal
The source made the active and inactive calls. The calls were made as follows: active = hit-call score of the fitted dose curve at least 0.9, where 1 is the maximum; inactive = score below 0.9.
Labels: true = active, false = inactive

smi=O=C(c1ccc(O)cc1O)c1ccc(O)cc1O cat=false
smi=c1ccc2[nH]c(-c3cscn3)nc2c1 cat=true
smi=C#C[C@]1(O)CC[C@H]2[C@@H]3CCC4=CC(=O)CC[C@@H]4[C@H]3CC[C@@]21CC cat=true
smi=COCCO cat=false
smi=C#CCOC(=O)[C@@H](C)Oc1ccc(Oc2ncc(Cl)cc2F)cc1 cat=false
smi=Oc1ccc(C(c2ccc(O)cc2)C(Cl)(Cl)Cl)cc1 cat=true
smi=CCOC(=O)NCCOc1ccc(Oc2ccccc2)cc1 cat=true
smi=OB(O)O cat=false

====

Read-out: Tumor necrosis factor receptor 1 (TNFRSF1A), TNFRSF1A (gene 7132)
Procedure summary: LTEA_HepaRG_TNFRSF1A: Life Technologies and Expression Analysis (LTEA) Assay for Tumor necrosis factor receptor 1 (TNFRSF1A) using HepaRG (AID 2283535)
Condition description: mRNA level, 48 h; actives raise or lower the signal
Activity calls are given as the source filed them. How the source made its calls: active means hit-call score of the fitted dose curve at least 0.9, where 1 is the maximum; inactive means score below 0.9.
Labels: active, inactive

smi=OB(O)O cat=inactive
smi=O=C(O)c1ccccc1 cat=inactive
smi=Oc1ccc(C(c2ccc(O)cc2)C(Cl)(Cl)Cl)cc1 cat=active
smi=CCOC(=O)COc1cc(-n2ncc(C(F)(F)F)c(C)c2=O)c(F)cc1Cl cat=inactive
smi=CCCCOCCOCCOCc1cc2c(cc1CCC)OCO2 cat=inactive

====

Procedure summary: APR_HepG2_MicrotubuleCSK_72hr: Apredica 72-hour HepG2 Assay for Microtubule CSK Stabilty (AID 2282919)
Condition description: HepG2 microtubule cytoskeleton, high-content imaging, actives raise or lower the signal
Method: APR_HepG2_72hr is a cell-based, multiplexed-readout assay that uses HepG2, a human liver cell line, with measurements taken at 72 hours after chemical dosing in a 384-well plate.APR_HepG2_MicrotubuleCSK_72hr is one of 10 assay component(s) measured or calculated from the APR_HepG2_72hr assay. […] This assay endpoint, APR_HepG2_MicrotubuleCSK_72hr, was analyzed with bidirectional fitting relative to DMSO as the negative control and baseline of activity. […]
Activity calls are given as the source filed them. Rule for the calls: active = hit-call score of the fitted dose curve at least 0.9, where 1 is the maximum; inactive = score below 0.9.
Quantity measured: outcome

smi=Oc1ccc(C(c2ccc(O)cc2)C(Cl)(Cl)Cl)cc1 quantity_measured=outcome value=inactive
smi=O=C(O)C1(C(=O)Nc2ccc(Cl)cc2Cl)CC1 quantity_measured=outcome value=inactive
smi=CCNc1nc(N)nc(Cl)n1 quantity_measured=outcome value=inactive
